Assay: Volume of distribution in ICR mouse at 1 mg/kg, iv measured upto 24 hrs by LC-MS/MS analysis
Type: ADME, organism-based
Conditions: in vivo
Vd reference
# value in L/kg; strip the unit string

Recorded results for 5 compounds are shown here.
Item smiles: C=CCn1c(=O)c2cnc(Nc3ccc(N4C[C@@H](C)N[C@@H](C)C4)cc3)nc2n1-c1cccc(-c2ncccn2)n1
Parameter measured: Vd
Number: 60.5
--
Item smiles: C=CCn1c(=O)c2cnc(Nc3ccc(N4CCN(C)CC4)cc3)nc2n1-c1cccc(-c2ncc(C)cn2)n1
Parameter measured: Vd
Number: 1.98
--
Item smiles: C=CCn1c(=O)c2cnc(Nc3ccc(N4CCN(C)CC4)cc3)nc2n1-c1cccc(C(C)(C)O)n1
Parameter measured: Vd
Number: 16.1
--
Item smiles: C=CCn1c(=O)c2cnc(Nc3ccc(N4CCNCC4)cc3)nc2n1-c1cccc(-c2ncccn2)n1
Parameter measured: Vd
Number: 5.66
--
Item smiles: C=CCn1c(=O)c2cnc(Nc3ccc(N4CCN(CC)CC4)cc3)nc2n1-c1cccc(-c2cnccn2)n1
Parameter measured: Vd
Number: 7.4

q: Quick one: Vd of `C=CCn1c(=O)c2cnc(Nc3ccc(N4C[C@@H](C)N[C@@H](C)C4)cc3)nc2n1-c1cccc(-c2cccnn2)n1` ?
a: 20.3

q: Quick one: Vd of `C=CCn1c(=O)c2cnc(Nc3ccc(N4CCN(C)CC4)cc3)nc2n1-c1cccc(-c2cnccn2)n1` ?
a: 11.3

q: Quick one: Vd of `C=CCn1c(=O)c2cnc(Nc3ccc(C4CCN(C)CC4)cc3)nc2n1-c1cccc(-c2ncccn2)n1` ?
a: 9.03

q: Quick one: Vd of `C=CCn1c(=O)c2cnc(Nc3ccc(N4CCN(C)CC4)cc3)nc2n1-c1cccc(-c2cccnn2)n1` ?
a: 11.7

q: Quick one: Vd of `C=CCn1c(=O)c2cnc(Nc3ccc(N4[C@@H]5CC[C@H]4CN(C)C5)cc3)nc2n1-c1cccc(-c2ncccn2)n1` ?
a: 13.4

----------
Molecular target: Wee1-like protein kinase (Homo sapiens, UniProt P30291)
Sequence (P30291 whole entry, the tested form may be a part): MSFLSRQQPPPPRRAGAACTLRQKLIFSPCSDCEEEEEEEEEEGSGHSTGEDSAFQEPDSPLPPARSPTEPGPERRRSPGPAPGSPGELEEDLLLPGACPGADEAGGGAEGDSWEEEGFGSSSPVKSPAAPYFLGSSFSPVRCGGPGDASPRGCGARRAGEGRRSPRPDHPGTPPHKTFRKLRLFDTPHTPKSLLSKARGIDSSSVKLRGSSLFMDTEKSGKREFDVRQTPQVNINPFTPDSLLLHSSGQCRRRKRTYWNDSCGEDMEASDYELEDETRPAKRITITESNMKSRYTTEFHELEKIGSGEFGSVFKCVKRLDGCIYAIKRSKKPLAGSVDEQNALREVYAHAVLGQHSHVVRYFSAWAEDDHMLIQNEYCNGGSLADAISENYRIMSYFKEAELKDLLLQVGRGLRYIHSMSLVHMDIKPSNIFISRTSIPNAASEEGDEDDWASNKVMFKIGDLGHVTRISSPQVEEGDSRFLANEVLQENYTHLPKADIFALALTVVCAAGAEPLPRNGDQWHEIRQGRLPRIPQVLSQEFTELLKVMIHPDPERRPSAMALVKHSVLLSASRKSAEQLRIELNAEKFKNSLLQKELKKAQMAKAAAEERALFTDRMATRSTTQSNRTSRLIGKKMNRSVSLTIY
Experiment: Inhibition of human Wee1 (215 to 647 residues) using polyornithine/tyrosine (4:1) as substrate incubated for 5 mins in presence of ATP by micro beta plate reader analysis
# label = criterion met if IC50 < 2 nM else criterion not met

Item smiles: C=CCn1c(=O)c2cnc(Nc3ccc(N4C5CCC4CN(C)C5)cc3)nc2n1-c1cccc(-c2cccnn2)n1
Group label: criterion not met

q: Is it true that IC50 reported for `C=CCn1c(=O)c2cnc(Nc3ccc(N4CCN(C)CC4)cc3)nc2n1-c1ccc2ccccc2n1` is less than 2 nM?
a: criterion not met

q: Is it true that IC50 reported for `C=CCn1c(=O)c2cnc(Nc3ccc4c(c3)CNCC4)nc2n1-c1cccc(-c2ncccn2)n1` is less than 2 nM?
a: criterion met

q: Is it true that IC50 reported for `C=CCn1c(=O)c2cnc(Nc3ccc(C4CCN(C)CC4)cc3)nc2n1-c1cccc(-c2ncccn2)n1` is less than 2 nM?
a: criterion not met

q: Is it true that IC50 reported for `C=CCn1c(=O)c2cnc(Nc3ccc(N4[C@@H]5CC[C@H]4CN(C)C5)cc3)nc2n1-c1cccc(-c2ncccn2)n1` is less than 2 nM?
a: criterion not met

q: Is it true that IC50 reported for `C=CCn1c(=O)c2cnc(Nc3ccc(N4CCN(C)CC4)cc3)nc2n1-c1ccc2cnn(C(C)C)c2c1` is less than 2 nM?
a: criterion not met

q: Is it true that IC50 reported for `C=CCn1c(=O)c2cnc(Nc3ccc(N4CCN(CCO)CC4)cc3)nc2n1-c1cccc(-c2cnccn2)n1` is less than 2 nM?
a: criterion not met

q: Is it true that IC50 reported for `C=CCn1c(=O)c2cnc(Nc3ccc(N4CCN(C)CC4)cc3)nc2n1-c1cccc(-c2cc(F)ccn2)n1` is less than 2 nM?
a: criterion not met

q: Is it true that IC50 reported for `C=CCn1c(=O)c2cnc(Nc3ccc(N4CCN(CC)CC4)cc3)nc2n1-c1cccc(-c2cnccn2)n1` is less than 2 nM?
a: criterion met

q: Is it true that IC50 reported for `C=CCn1c(=O)c2cnc(Nc3ccc(N4CCN(C)CC4)cc3)nc2n1-c1cccc(-n2nc(C)cc2C)n1` is less than 2 nM?
a: criterion not met
